Test: Surface tension (Kruss surface tensiometer)
Format: physicochemical
Conditions: 0.1 wt % in 0.005M NaCl water
Entries and their Surface Tension values follow.
result-type: Surface Tension (mN/m)

>>> reported("C[Si](C)(C)O[Si](C)(C)CCCOCCOCCOCCOCCOCCOCCOCCOCCOCCOCCOCCO [Comparative C, reference compound]")
24.1
>>> reported("CC(C)(C)CC(C)(C)c1ccc(OCCOCCOCCOCCOCCOCCOCCOCCOCCOCCO)cc1 [OPE, Octylphenolethoxylate]")
31.8
>>> reported("C[Si](C)(C)CC[Si](C)(C)O[Si](C)(C)CCCOCCOCCOCCOCCOCCOCCOCCOCCOCCOCCOCCO")
24.5
>>> reported("C[Si](C)(CCCOCCOCCOCCOCCOCCOCCOCCOCCOCCOCCOCCO)O[Si](C)(C)C1CC2CC1C1C=CCC21 (stereo not shown) [Comparative D, reference compound]")
32.7

---

Assay: Spreading of 10 μL droplet on polyacetate film
Format: physicochemical
Conditions: 0.4%; 30 seconds
result-type: Spread Diameter (mm)

>>> reported("C[Si](C)(CCCOCCOCCOCCOCCOCCOCCOCCOCCOCCOCCOCCO)O[Si](C)(C)C1CC2CC1C1C=CCC21 (stereo not shown) [Comparative D, reference compound]")
6
>>> reported("C[Si](C)(C)O[Si](C)(C)CCCOCCOCCOCCOCCOCCOCCOCCOCCOCCOCCOCCO [Comparative C, reference compound]")
9
>>> reported("C[Si](C)(C)CC[Si](C)(C)O[Si](C)(C)CCCOCCOCCOCCOCCOCCOCCOCCOCCOCCOCCOCCO")
32
>>> reported("CC(C)(C)CC(C)(C)c1ccc(OCCOCCOCCOCCOCCOCCOCCOCCOCCOCCO)cc1 [OPE, Octylphenolethoxylate]")
10
